Here, each record is paired with measured composite z-score data.
Test system: wheat germ agglutinin (Triticum aestivum), Alexa647-labelled
ASSAY_OVERVIEW: wheat germ agglutinin binders on compound microarrays, profiling panel, artefact control for SMM control-protein annotation, biochemical, small-molecule microarray, 635/667 nm fluorescence (AID 1140);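 also: score merges 667 nm feature emission with signal to noise over triplicate slides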
ASSAY_CONTEXT: WGA-A647 binding, 635 nm fluorescence, higher = more signal
Please give only the number in your answer, with no unit.

[
  {
    "COMPOUND": "O=C(O)[C@H]1C[C@H]2C(=O)N3CCC[C@H]3C(=O)N2[C@H]1c1cccc(OCCO)c1",
    "composite z-score": 0.227
  },
  {
    "COMPOUND": "C[C@]12C(=O)N(CCCCCCO)[C@@H]3C(=O)N(c4ccc(Cl)cc4)CC=CC31O[C@@H]1/C=C\\CCCOC(=O)C12 (some centres undefined)",
    "composite z-score": 0.608
  },
  {
    "COMPOUND": "COC(=O)[C@@]1(Cc2ccc(OC)cc2)[C@H]2c3cc(C(=O)N(C)C)n(CCc4c[nH]c5ccc(O)cc45)c3C[C@H]2CN1C(=O)c1ccccc1",
    "composite z-score": 1.28
  }
]

Now for another entry.
Find the measured composite z-score: item CCOC(=O)C1=CC[C@@H](c2ccc([N+](=O)[O-])cc2)N(S(=O)(=O)c2ccc(C)cc2)[C@H]1c1ccccc1 , target or system wheat germ agglutinin (Triticum aestivum), Alexa647-labelled. 0.695

###

ASSAY_OVERVIEW: E. coli growth modulation, two-sided OD650, primary screen, E. coli filamentation project, strain DRC41, 24 h (AID 1093);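 also: MC1000 strain lacking acrAB efflux and sulA so SOS filamentation is blocked; test concentration not given here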
ASSAY_CONTEXT: OD650, 24 h, higher = more signal, called active from +8 up or from −8 down
Where z-score equals or exceeds 0.6, the correct label is Condition met; where it does not, the label is Condition not met.

Known results for molecules:
[
  {
    "MOLECULE": "COc1cc(CO)cc(I)c1O[C@H]1C=C(C(=O)NCCO)C[C@@H](NCc2ccccc2F)[C@@H]1O",
    "CATEGORY_LABEL": "Condition met"
  },
  {
    "MOLECULE": "COc1cc2c(cc1OC)CN(C(=O)[C@H]1[C@@H]3C(=O)O[C@@H](c4ccccc4)[C@@H](c4ccccc4)N3[C@@H](c3ccc(OCCO)cc3)[C@]13C(=O)Nc1ccc(C#CCCO)cc13)CC2",
    "CATEGORY_LABEL": "Condition not met"
  },
  {
    "MOLECULE": "O=C1O[C@@H](c2ccccc2)[C@@H](c2ccccc2)N2[C@@H](c3ccccc3OCCO)[C@]3(C(=O)Nc4ccccc43)[C@@H](C(=O)NC[C@H](O)c3ccccc3)[C@H]12",
    "CATEGORY_LABEL": "Condition not met"
  }
]

Dear colleague, could you confirm whether CN(C)CCCNC(=O)[C@@]1(c2ccc([N+](=O)[O-])cc2)CC(=O)N(CC23CC4CC(CC(C4)C2)C3)[C@@H]1c1ccc(CO)cc1 has z-score at or above 0.6? Condition not met

Okay, and CC=CC(O)C1C=CC2C(=O)N(c3ccccc3)C(=O)C2N1Nc1ccc([N+](=O)[O-])cc1 (stereo not drawn) ? Condition not met

Okay, and CN1C(=O)C2C=CC(C(O)c3c(F)cccc3Cl)N(Nc3ccccc3)C2C1=O (stereo not drawn) ? Condition not met

Okay, and CC(C)NC(=O)[C@@]1(C)c2ccccc2C(=O)N(C(C)C)[C@H]1c1ccc(CO)cc1 ? Condition not met

Okay, and CC(C)C(O)C1C=CC2C(=O)N(C)C(=O)C2N1N(c1ccccc1)c1ccccc1 (stereo not drawn) ? Condition not met

Okay, and COc1cc(CO)cc(I)c1O[C@H]1C=C(C(=O)NCCO)C[C@@H](N(Cc2ccc(F)cc2)C(=O)C2CCCO2)[C@@H]1O (stereo partly drawn) ? Condition met

###

Here, each record is paired with measured z-score data.
ASSAY_OVERVIEW: modulators of S6 phosphorylation in cells, primary screen, cell-based, A549, cytoblot, luminescence, serum-stimulated (AID 1158);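 also: serum-stimulated A549 lung adenocarcinoma cells; signal is phosphorylated S6 detected by cytoblot immunostaining with HRP secondary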
ASSAY_CONTEXT: A549 phospho-S6 cytoblot, 5 h, higher = more signal
Please give only the number in your answer, with no unit.

Look over these answered cases.
[
  {
    "COMPOUND": "C=CCNC(=O)[C@@H]1[C@H]2C(=O)O[C@H](c3ccccc3)[C@H](c3ccccc3)N2[C@H](c2ccccc2OCCO)[C@@]12C(=O)N(C(=O)OCCOC)c1ccc(C#CC3=CCCCC3)cc12",
    "z-score": 0.325
  },
  {
    "COMPOUND": "Cc1c(NC(=O)/C(C#N)=C/C=C/c2ccccc2[N+](=O)[O-])c(=O)n(-c2ccccc2)n1C",
    "z-score": -0.243
  },
  {
    "COMPOUND": "C=CCN1C(=O)[C@@]2(CCC(=O)OC(C)(C)C)N=C(c3ccc(OCCCO)cc3)O[C@H]2c2ccccc21",
    "z-score": 0.0444
  },
  {
    "COMPOUND": "C=CCN1C(=O)[C@@]2(O[C@@H](CCn3cc([C@H](O)c4ccccc4)nn3)[C@H]([Si](C)(C)c3ccc(OC)cc3)[C@H]2C)c2ccccc21",
    "z-score": 0.32
  },
  {
    "COMPOUND": "COCCOC(=O)N1C(=O)[C@@]2(c3ccccc31)[C@H](C(=O)N1CCN(c3ncccn3)CC1)[C@H]1C(=O)O[C@H](c3ccccc3)[C@H](c3ccccc3)N1[C@@H]2c1ccc(OCCO)cc1",
    "z-score": 0.242
  }
]

Entry C=C[C@@H](COC(C)=O)NS(=O)(=O)c1ccc(Br)cc1 : reported z-score = ? -0.0771

Okay, and CCCC=C(CCC)[C@@H](NP(=O)(c1ccccc1)c1ccccc1)c1ccc(C(F)(F)F)cc1 ? 0.828

Okay, and CCOc1cc(C(O)C2C=CC3C(=O)N(C4CCCCC4)C(=O)C3N2Nc2ccc(OC)cc2)ccc1O (stereo not given) ? -0.089

Okay, and COc1ccc(NN2C(C(O)c3ccco3)C=CC3C(=O)N(C4CCCCC4)C(=O)C32)cc1 (stereo not given) ? -0.686

Okay, and CN(C)CCCN1C(=O)[C@@]2(c3ccc([N+](=O)[O-])cc3)CC(=O)N(CC34CC5CC(CC(C5)C3)C4)[C@@H]2c2ccc(CO)cc21 ? 0.299

Okay, and NC(N)=NCc1cn(CCc2c[nH]c3ccccc23)nn1 ? -0.583

Okay, and COc1ccc([Si](C)(C)[C@H]2[C@H](CCn3cc([C@H](O)c4ccccc4)nn3)O[C@@]3(C(=O)N(Cc4ccc(N5CCOC5=O)cc4)c4ccccc43)[C@@H]2C)cc1 ? -0.532

Okay, and CC(C)(C)OC(=O)CC[C@]1(C(=O)O)N=C(c2ccc(OCCCO)cc2)O[C@H]1c1ccccc1CN=[N+]=[N-] ? 0.172

Okay, and COc1ccc(CCNC(=O)[C@@]2(Sc3ccc(C)cc3)CC(=O)N(Cc3cc(C(F)(F)F)cc(C(F)(F)F)c3)[C@@H]2c2ccc(CO)cc2I)cc1 ? 0.179

Okay, and COc1ccc(C(O)C2C=CC3C(=O)N(c4ccccc4)C(=O)C3N2Nc2ccccc2)cc1OCc1ccccc1 (stereo not given) ? -1.39

###

Here, each record is paired with measured composite z-score data.
TESTED_ON: Torsin-1A-interacting protein 2 (Homo sapiens) (UniProt Q8NFQ8)
Sequence (Q8NFQ8 whole entry, looked up): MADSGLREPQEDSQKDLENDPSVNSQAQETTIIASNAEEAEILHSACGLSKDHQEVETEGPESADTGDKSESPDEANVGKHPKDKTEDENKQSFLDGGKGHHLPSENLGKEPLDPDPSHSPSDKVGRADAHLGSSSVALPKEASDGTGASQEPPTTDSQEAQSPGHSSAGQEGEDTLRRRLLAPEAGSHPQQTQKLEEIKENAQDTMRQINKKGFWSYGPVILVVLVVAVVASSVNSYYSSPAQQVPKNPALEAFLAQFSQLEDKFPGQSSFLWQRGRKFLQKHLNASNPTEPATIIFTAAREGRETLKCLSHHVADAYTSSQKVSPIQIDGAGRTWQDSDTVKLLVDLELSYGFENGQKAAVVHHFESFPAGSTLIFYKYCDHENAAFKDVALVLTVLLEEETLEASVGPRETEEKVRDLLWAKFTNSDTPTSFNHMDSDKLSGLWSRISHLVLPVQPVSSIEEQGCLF
ASSAY_OVERVIEW: LULL1 binders on small-molecule microarray, primary screen, cell lysate, human LULL1 lysate, 635/667 nm fluorescence (AID 1092);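 also: probe is lysate of COS7 cells overexpressing human LULL1; score merges per-feature 667 nm fluorescence with signal-to-noise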
ASSAY_CONTEXT: hLULL1 lysate binding, 635 nm fluorescence, higher = more signal
Please give only the number in your answer, with no unit.

Look over these answered cases.
[
  {
    "COMPOUND": "COc1cc2c(cc1OC)CN(C(=O)[C@@H]1[C@H]3C(=O)O[C@H](c4ccccc4)[C@H](c4ccccc4)N3[C@H](c3ccccc3OCCO)[C@@]13C(=O)Nc1ccc(C#CC4(O)CCCCCC4)cc13)CC2",
    "MEASURED_METRIC": "composite z-score",
    "REPORTED_VALUE": 2.09
  },
  {
    "COMPOUND": "CC(C)N1CC=CC23O[C@@H]4C=CCCOC(=O)C4[C@H]2C(=O)N(CCO)[C@@H]3C1=O (some centres not stated)",
    "MEASURED_METRIC": "composite z-score",
    "REPORTED_VALUE": -0.805
  },
  {
    "COMPOUND": "CC(C)(C)OC(=O)CC[C@]1(C(=O)N2CCOCC2)N=C(c2ccc(OCCCO)cc2)O[C@H]1c1ccccc1",
    "MEASURED_METRIC": "composite z-score",
    "REPORTED_VALUE": 2.52
  },
  {
    "COMPOUND": "C=C(CCCC)/C(=C/C[C@@H](OC(=O)c1ccncc1)c1cccc(OCCO)c1)c1cnc2ccccc2c1",
    "MEASURED_METRIC": "composite z-score",
    "REPORTED_VALUE": 1.52
  },
  {
    "COMPOUND": "C=CC[C@H](OC(=O)Nc1ccc(OC)cc1)c1ccc(O)c2ccccc12",
    "MEASURED_METRIC": "composite z-score",
    "REPORTED_VALUE": 2.08
  }
]

Entry COc1cc(CO)cc(I)c1O[C@H]1C=C(C(=O)NCCO)C[C@@H](N(Cc2ccc(F)cc2)C(=O)C2CCCO2)[C@@H]1O (some centres not stated) : reported composite z-score = ? -0.492

Okay, and NC(=O)NCC#Cc1ccc2c(c1)[C@]1(C(=O)N2)[C@H](c2ccc(O)cc2)N2[C@H](c3ccccc3)[C@H](c3ccccc3)OC(=O)[C@H]2[C@@H]1C(=O)Nc1nc2ccccc2s1 ? 1.07
